TARGET_SYSTEM: T1, human Siglec15-Fc protein (human)
T1 construct: In house made; also called recombinant human Siglec15 protein with human IgG1 Fc at the C-terminus
T1 sequence (chain, as listed by the source limits assumed): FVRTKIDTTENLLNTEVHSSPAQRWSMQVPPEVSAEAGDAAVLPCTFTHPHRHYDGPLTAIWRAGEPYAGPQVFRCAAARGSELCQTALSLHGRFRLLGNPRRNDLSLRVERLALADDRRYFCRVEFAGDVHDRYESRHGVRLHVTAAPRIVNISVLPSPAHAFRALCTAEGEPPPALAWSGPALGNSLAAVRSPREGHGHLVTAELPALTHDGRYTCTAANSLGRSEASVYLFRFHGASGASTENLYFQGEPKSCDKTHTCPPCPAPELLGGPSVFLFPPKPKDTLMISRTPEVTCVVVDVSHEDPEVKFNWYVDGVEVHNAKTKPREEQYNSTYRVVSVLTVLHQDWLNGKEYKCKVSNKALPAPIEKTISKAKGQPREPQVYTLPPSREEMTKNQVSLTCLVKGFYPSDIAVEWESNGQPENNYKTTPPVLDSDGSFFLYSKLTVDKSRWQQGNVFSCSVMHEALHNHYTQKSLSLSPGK
PROTOCOL: competitive ELISA: coated human Siglec15-Fc, blocked ligand biotin-labeled human LRRC4C-Fc
PROPERTY_MEASURED: pIC50
Give only the number. pIC50 is defined as minus log10 of concentration in molar units.

Example results:
BINDER	pIC50
A2A5C7E8-3 (antibody, human IgG1, kappa, V domains shown, Variant of A2A5C7E8 modified in VH CDR2 (X2 = K)) VH: EVQLVQSGAEVKKPGESLRISCKGSGYSFTTYWISWVRQMPGKGLEWMGLIDPSDSYTNYSPSFKGHVTISTDKSISTAYLQWSSLKASDTAMYYCARGGYYGSEEDYWGQGTLVTVSS VL: EIVLTQSPGTLSLSPGERATLSCRASQSVSSSRLAWFQQKSGQAPRLLIFDASSRATGIPDRFSGSGSGTDFTLTISRLEPEDFAVYYCQQYGSSPRTFGQGTKVEFKR	9.26
A2A5C7E8-2 (antibody, human IgG1, kappa, V domains shown, Variant of A2A5C7E8 modified in VH CDR2 (X1 = E)) VH: EVQLVQSGAEVKKPGESLRISCKGSGYSFTTYWISWVRQMPGKGLEWMGLIDPSESYTNYSPSFQGHVTISTDKSISTAYLQWSSLKASDTAMYYCARGGYYGSEEDYWGQGTLVTVSS VL: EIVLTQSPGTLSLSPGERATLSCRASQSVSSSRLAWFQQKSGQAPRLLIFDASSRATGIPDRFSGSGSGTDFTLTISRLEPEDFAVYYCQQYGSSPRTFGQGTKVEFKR	9.35
anti-Siglec15 benchmark (ch5G12) (antibody, human IgG1, kappa, V domains shown, ch5G12 (US 20190202912A1); also called BM; Siglec15-ch5G9) VH: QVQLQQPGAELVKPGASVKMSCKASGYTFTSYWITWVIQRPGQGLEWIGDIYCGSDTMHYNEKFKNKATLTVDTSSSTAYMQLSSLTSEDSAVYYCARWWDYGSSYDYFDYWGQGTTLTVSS VL: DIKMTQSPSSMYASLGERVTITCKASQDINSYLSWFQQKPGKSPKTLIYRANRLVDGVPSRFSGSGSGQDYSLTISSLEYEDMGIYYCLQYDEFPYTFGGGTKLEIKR	9.17

Ask | Item A2A5C7E8 (antibody, V domains shown, Fully human antibody from transgenic mouse hybridoma; also called A2A5C7E8-1) VH: EVQLVQSGAEVKKPGESLRISCKGSGYSFTTYWISWVRQMPGKGLEWMGLIDPSDSYTNYSPSFQGHVTISTDKSISTAYLQWSSLKASDTAMYYCARGGYYGSEEDYWGQGTLVTVSS VL: EIVLTQSPGTLSLSPGERATLSCRASQSVSSSRLAWFQQKSGQAPRLLIFDASSRATGIPDRFSGSGSGTDFTLTISRLEPEDFAVYYCQQYGSSPRTFGQGTKVEFK : provide pIC50
Reply | 9.40
